Tested on: E28 (patient-derived glioblastoma stem cells of classical subtype);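 note: nuclei counted by high-content imaging of Hoechst-stained cells in laminin-coated 384-well plates, relative to 0.1% DMSO vehicle wells, with staurosporine as cell-death control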
PROCEDURE_DETAILS: surviving fraction (nuclei count normalised to DMSO); higher = more cells surviving (less toxic)
RUN_PARAMETERS: 111.1 nM; exposure time: 72 h
Where a name gives a salt, the structure may show the parent alone.
TEST_READOUT: surviving fraction
# output: bare number, no unit

Examples from the recorded data:
S=c1[nH]cnc2nc[nH]c12 [Mercaptopurine] | 1.13
CC1(C(=O)O)C2CCC(O2)C1(C)C(=O)O (centres undefined) [Cantharidic Acid] | 1.07
CN1C(=O)CC(c2ccccc2)C1=O (centres undefined) [Phensuximide] | 1.09

Using the record for COc1cc(OC)c(C(=O)CCCN2CCCC2)c(OC)c1 [Buflomedil hydrochloride] , report its surviving fraction. 1.21
